- Assay Target: Gastrin/cholecystokinin type B receptor (Homo sapiens, UniProt P32239)
- Sequence (P32239 whole entry): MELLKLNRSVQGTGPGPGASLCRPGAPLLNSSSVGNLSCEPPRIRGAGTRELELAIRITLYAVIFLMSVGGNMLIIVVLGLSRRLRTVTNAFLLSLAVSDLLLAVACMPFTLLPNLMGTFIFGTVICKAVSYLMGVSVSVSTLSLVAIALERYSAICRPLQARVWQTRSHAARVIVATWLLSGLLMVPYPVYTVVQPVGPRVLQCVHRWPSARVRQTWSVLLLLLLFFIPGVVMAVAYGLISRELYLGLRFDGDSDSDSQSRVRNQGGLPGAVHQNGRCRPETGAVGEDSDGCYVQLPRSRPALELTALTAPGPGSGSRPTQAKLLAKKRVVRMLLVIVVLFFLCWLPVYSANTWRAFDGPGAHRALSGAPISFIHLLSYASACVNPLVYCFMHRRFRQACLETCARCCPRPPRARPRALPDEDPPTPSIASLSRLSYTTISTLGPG
- Experiment Notes: Displacement of [125I]-CCK-8 from human CCK2R expressed in human 1321N1 cell membranes after 2 hrs by SPA assay
Quick reference: pIC50 of the listed items.
Keep the answer to the number alone.

Prompt line: Reported pIC50, molecule "CCCC[C@H](NC(=O)[C@H](Cc1c[nH]c2ccccc12)NC(=O)CNC(=O)[C@@H](CCCNC(=O)COCCOCCNC(=O)COCCOCCNC(=O)CC[C@H](NC(=O)CCCCCCCCCCCCCCCCC(=O)O)C(=O)O)NC(=O)Cc1ccc(O)cc1)C(=O)N(C)[C@H](CC(=O)O)C(=O)N(C)[C@@H](Cc1ccccc1)C(N)=O" : ____
Response line: 5.08

Please look at the following molecule next.
Prompt line: Reported pIC50, molecule "CCCC[C@H](NC(=O)[C@H](Cc1c[nH]c2ccccc12)NC(=O)CNC(=O)[C@H](CC(C)C)NC(=O)[C@H](Cc1ccc(O)cc1)NC(=O)[C@H](CC(=O)O)NC(=O)COCCOCCNC(=O)COCCOCCNC(=O)CC[C@H](NC(=O)CCCCCCCCCCCCCCCCC(=O)O)C(=O)O)C(=O)N(C)[C@@H](CC(=O)O)C(=O)N(C)[C@@H](Cc1ccccc1)C(N)=O" : ____
Response line: 5.31

----------
- Assay Target: Gastrin/cholecystokinin type B receptor (Homo sapiens)
- Sequence (P32239 whole entry): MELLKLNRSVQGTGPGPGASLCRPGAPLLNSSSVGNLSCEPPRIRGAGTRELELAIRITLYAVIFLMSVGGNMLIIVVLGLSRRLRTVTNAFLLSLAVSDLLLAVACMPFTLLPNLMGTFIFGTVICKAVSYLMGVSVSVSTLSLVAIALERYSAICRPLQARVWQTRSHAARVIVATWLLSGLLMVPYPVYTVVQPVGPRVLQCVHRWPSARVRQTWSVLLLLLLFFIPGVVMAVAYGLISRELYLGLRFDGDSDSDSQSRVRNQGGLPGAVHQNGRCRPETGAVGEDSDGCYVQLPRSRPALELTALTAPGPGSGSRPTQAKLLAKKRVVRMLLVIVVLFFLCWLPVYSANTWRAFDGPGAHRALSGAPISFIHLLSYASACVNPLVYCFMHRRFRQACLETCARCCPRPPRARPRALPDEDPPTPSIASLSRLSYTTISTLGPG
- Experiment Notes: Agonist activity at human CCK2R expressed in human 1321N1 cells assessed as IP1 accumulation after 1 hr by HTRF assay
pEC50: −log10 of the molar value. Numbered stars: 1 amine (or outer) side, 2 acyl side, 3 side chain; on linkers, the order of the positions; unused ones are H or OH. Square brackets hold non-standard residues; d marks the D form. Side chains are listed from the residue outwards. Peptide text beside a SMILES is read from it. * marks the point of attachment. Phenylacetyl(4-OSO3H) = O=C(Cc1ccc(OS(=O)(=O)O)cc1)*; sY = N[C@@H](Cc1ccc(OS(=O)(=O)O)cc1)C(=O)O; C18 diacid = O=C(O)CCCCCCCCCCCCCCCCC(=O)*; γGlu = O=C(O)[C@H](CCC(=O)[*:2])N[*:1]; NMeF = CN[C@@H](Cc1ccccc1)C(=O)O; NMeD = CN[C@@H](CC(=O)O)C(=O)O; dNMeD = CN[C@H](CC(=O)O)C(=O)O; NH(2-Me-phenyl) = Cc1ccccc1N*; Nle = CCCC[C@H](N)C(=O)O; X1 = O=C(Cc1ccc(O)cc1)*; AEEA = NCCOCCOCC(=O)O; CO = O=C([*:1])[*:2]
Quick reference: pEC50 of the listed items.

Prompt line: Reported pEC50, compound CCCC[C@H](NC(=O)Cc1ccc(O)cc1)C(=O)NCC(=O)N[C@@H](Cc1c[nH]c2ccccc12)C(=O)N[C@@H](CCCC)C(=O)N(C)[C@@H](CC(=O)O)C(=O)N(C)[C@@H](Cc1ccccc1)C(N)=O (X1-[Nle]GW[Nle][NMeD][NMeF]-NH2) : ____
Response line: < 6.00

Prompt line: Reported pEC50, compound CCCC[C@H](NC(=O)[C@H](Cc1ccc(OS(=O)(=O)O)cc1)NC(=O)[C@H](CC(=O)O)NC(=O)COCCOCCNC(=O)COCCOCCNC(=O)CC[C@H](NC(=O)CCCCCCCCCCCCCCCCC(=O)O)C(=O)O)C(=O)NCC(=O)N[C@@H](Cc1c[nH]c2ccccc12)C(=O)N[C@@H](CCCCNC(=O)Nc1ccccc1C)C(=O)N(C)[C@@H](CC(=O)O)C(=O)N(C)[C@@H](Cc1ccccc1)C(N)=O ({C18 diacid-γGlu-AEEA-AEEA}-D[sY][Nle]GWK([CO-NH(2-Me-phenyl)])[NMeD][NMeF]-NH2) : ____
Response line: < 6.00

New cases:
Prompt line: Reported pEC50, compound CCCC[C@H](NC(=O)Cc1ccc(OS(=O)(=O)O)cc1)C(=O)NCC(=O)N[C@@H](Cc1c[nH]c2ccccc12)C(=O)N[C@@H](CCCC)C(=O)N(C)[C@H](CC(=O)O)C(=O)N[C@@H](Cc1ccccc1)C(N)=O ({Phenylacetyl(4-OSO3H)}-[Nle]GW[Nle][dNMeD]F-NH2) : ____
Response line: < 6.00

The measured values listed here are drawn from ChEMBL document CHEMBL4368907.
